Where these numbers come from: ChEMBL document CHEMBL1201862

test system: HOP-92; test: NCI tumour cell line growth inhibition, 48 h
Activity calls are given as the source filed them. Cut-off read from the data, not from the text of the source: active = GI50 up to about 1.1 µM and inactive = higher.
Attribute: GI50
Recorded endpoint: GI50

1. Fc1ccc2c(c1)nc1n2C(c2c(Cl)cccc2Cl)SC1 (stereo not given) | 6.87 µM (inactive)
2. C=C/C(C)=C/[C@H](C)C(=O)C[C@H](O)CC1CC(=O)NC(=O)C1 | 21.7 µM (inactive)
3. O=C1Cc2c(-c3ccccc3)cc(-c3cccc(Cl)c3)nc2-c2ccccc2N1 | 1.34 µM (inactive)
4. O=C1C2C3C=C4c5ccccc5N(c5ccccc5)C4([C@@H]2C(=O)N1c1ccc(F)cc1)[C@H]1C(=O)N(c2ccc(F)cc2)C(=O)[C@@H]31 (stereo not given in full) | > 100 µM (inactive)
5. Cc1c(N=NN(C)C)cc[n+]([O-])c1C | > 100 µM (inactive)

###

system: SK-MEL-2; test: NCI tumour cell line growth inhibition, 48 h
The source made the active and inactive calls. Rule as the data show it: active = GI50 up to about 1.1 µM and inactive = higher. Where a SMILES comes first, the peptide text is derived from it. [ ]: non-standard residue; d: D form. The star is where a group is joined. Bn2Val = CC(C)[C@@H](C(=O)*)N(Cc1ccccc1)Cc1ccccc1; NH(4-F-benzyl) = Fc1ccc(CN*)cc1; NMeV = CN[C@H](C(=O)O)C(C)C; dNMeA = CN[C@H](C)C(=O)O
Outcome codes: 1 (active), 0 (inactive)

1. C[C@]12CC[C@H]3[C@@H](CC=C4C[C@@H](O)CC[C@@]43C)[C@@H]1CC[C@@H]2N(CCO)CCO | 0
2. C[N+](C)(C)c1nc(N)nc2c1ncn2C1OC(CO)C(O)C1O (stereo not drawn) | 0
3. CC(C)[C@H](NC(=O)[C@H](C(C)C)N(Cc1ccccc1)Cc1ccccc1)C(=O)N(C)[C@H](C(=O)N1CCC[C@H]1C(=O)N(C)[C@H](C)C(=O)NCc1ccc(F)cc1)C(C)C (Bn2Val-V[NMeV]P[dNMeA]-{NH(4-F-benzyl)}) | 0
4. Cc1cccc(C(C)(C)C)c1NC(=O)C(=O)Cc1nc2ccccc2s1 | 0
5. COC(=O)c1cccc2cccc(C(=O)Nc3ccc(Cl)cc3)c12 | 0
6. COc1cc2c(cc1OC)-c1c(cnn1C1OC(COC(C)=O)C(OC(C)=O)C(OC(C)=O)C1OC(C)=O)CC2 (stereo not drawn) | 0
7. CC(=O)OCC(OC(C)=O)C1C[C@H]2O[C@@H]3[C@H](C[C@H]2O1)O[C@@]1(C[C@@H]3C)C[C@H](C)[C@@H]2O[C@]3(C[C@@H]2O1)C[C@H]1O[C@H]2[C@H](C)[C@H]4OC(=O)C[C@H]5CC[C@@H]6OC7[C@H]8O[C@]9(CC[C@H]%10CC(=O)[C@H](CC[C@H]%11C[C@@H](C)C(=O)C(C[C@@H]4O[C@H]2C[C@H]1O3)O%11)O%10)CC8O[C@@H]7[C@@H](O9)[C@H]6O5 (stereo partly drawn) | 1
8. Clc1ccc(Nc2nnc(CNc3ccc(-c4nnc(Nc5ccc(Cl)cc5)o4)cc3)o2)cc1 | 0

###

test system: HCT-15
Peptide text beside a SMILES is read from it.
Kindly apply the following: yes (1) if GI50 is less than 20 µM, no (0) in every other case.

1. CC(=O)NC(CS)C(=O)NC(CO)C(=O)NC(CO)C(=O)NC(Cc1c[nH]c2ccccc12)C(=O)N1CCCC1C(=O)NC(CO)C(=O)NC(Cc1c[nH]c2ccccc12)C(=O)NC(Cc1c[nH]cn1)C(=O)NC(CO)C(=O)NC(Cc1c[nH]c2ccccc12)C(=O)NCC(=O)NCC(=O)NC(C)C(=O)NC(CCC(N)=O)C(=O)NC(CCCCN)C(=O)NC(C)C(=O)NC(CCCNC(=N)N)C(=O)NC(CCCCN)C(N)=O (configuration not stated) (Ac-CSSWPSWHSWGGAQKARK-NH2; configuration not given here) | no (0)
2. COc1ccc(Sc2ccccc2N)cc1 | no (0)
3. C#CC(C)(C)Oc1cc(O)c2c(=O)c3ccccc3n(C)c2c1 | no (0)
4. CNC(=O)N(CCC#N)CCN(CCN(C(=O)NC)c1ccccc1)C(=O)NC | no (0)
5. COC(=O)C1(CCCCl)CCCN1C(=O)OC(C)(C)C (configuration not stated) | no (0)
6. Oc1ccc(NCc2cc(O)ccc2O)cc1 | yes (1)
7. COc1cc(Nc2nc3cc(C)ccc3nc2-c2ccccc2)cc(OC)c1OC | yes (1)
8. C[C@@H](c1ccccc1)N(CC#N)C1CCC[C@H]1O (some centres not stated) | no (0)
9. O=C(O)Cc1c(-c2ccc([N+](=O)[O-])cc2)c(=O)oc2cc(O)ccc12 | no (0)
10. CN(CCCCCl)P(=O)(OCC1=CC(=O)c2ccccc2C1=O)OC[C@H]1O[C@@H](n2cc(F)c(=O)[nH]c2=O)C[C@@H]1O (some centres not stated) | yes (1)
11. COC(=O)/C1=C/C2CC(/C=C(/c3ccccc3)C(=O)O1)C2 | yes (1)
12. O=c1[nH][nH]c(=O)n1Cc1cccc(Cn2c(=O)[nH][nH]c2=O)c1 | no (0)
13. O=C1CSC(=O)/C1=C\NNc1nc2ccccc2o1 | yes (1)
14. CCCNC(=O)CCC(C)[C@H]1CCC2C3C(C[C@H](OC(C)=O)[C@@]21C)[C@@]1(C)CCC2(C[C@H]1C[C@H]3OC(C)=O)OOC1(CCC(C)CC1)OO2 (some centres not stated) | no (0)
15. CC(NC(=O)c1ccc(Cl)c(Cl)c1)c1ccc(-c2ccccc2)cc1 (configuration not stated) | no (0)
16. Nc1ccc(-c2nc3ccccc3s2)cc1F | no (0)

###

tested on: SF-295; test: NCI tumour cell line growth inhibition, 48 h
Calls of active or inactive are those of the source. Rule as the data show it: active = GI50 up to about 1.1 µM and inactive = higher.
Recorded endpoint: GI50

1) CC(C)[Si](OC1=C(C(=O)Nc2ccccc2Cl)CCCCC1)(C(C)C)C(C)C | > 100 µM (inactive)
2) COc1cc(/C=C2\NC(=O)C(Cc3cc(OC)c(OC)c(C)c3OC)N(C(C)=O)C2=O)c(OC)c(C)c1OC (stereo not given) | > 100 µM (inactive)
3) CC(Nc1ccc(Cl)c(Cl)c1)c1ccncc1 (stereo not given) | 23.9 µM (inactive)
4) Cc1cccc(C[C@@]2(SCc3ccccc3)C(C)(C)[C@@H]3CC[C@@]2(C)C3)n1 | 14 µM (inactive)
5) COC(=O)/C=C(/C=C1/C(C#N)=C(N)N(c2ccc(Cl)cc2)C1(C)/C(=C/C(=O)OC)C(=O)OC)C(=O)OC (stereo not given) | 53.1 µM (inactive)

###

Quick reference for GI50 among some compounds
tested on: ACHN; test: NCI tumour cell line growth inhibition, 48 h
Calls of active or inactive are those of the source. No stated cut-off is given here; in the data, active = GI50 up to about 1.1 µM and inactive = higher.
Recorded endpoint: GI50

1) CCCCCC(CO)C(O)(C(F)(F)F)C(F)(F)F (stereo unspecified) | > 10 µM (inactive)
2) CC1(C)OC(=S)N(c2ccccc2)C12C=Cc1cc3ccccc3nc1S2 (stereo unspecified) | > 100 µM (inactive)
3) C[C@@H](O)CCC(=O)c1ccoc1 | > 100 µM (inactive)
4) Cc1ccc(N(C(=O)CC(=O)N2N=C(c3ccccc3)C(/N=N/c3ccc([N+](=O)[O-])cc3)C2=O)C(=O)c2ccc(Cl)cc2)cc1 (stereo unspecified) | 28.4 µM (inactive)
5) CN1C2C=C(c3ccccc3)CC1CC2 (stereo unspecified) | > 100 µM (inactive)
6) O=C1c2ccccc2/C=C\C(c2ccccc2)=N/N1c1ccccc1Cl | 26.4 µM (inactive)

###

The following molecules are shown together with reported GI50 values.
system: BT-549; assay: NCI tumour cell line growth inhibition, 48 h
Active and inactive are the calls of the source. No stated cut-off is given here; in the data, active = GI50 up to about 1.1 µM and inactive = higher.
Recorded endpoint: GI50

1. Clc1ccc(OCc2nnc(CCCCCCCCc3nnc(COc4ccc(Cl)cc4Cl)n3Nc3ccccc3)n2Nc2ccccc2)c(Cl)c1 | 17.9 µM (inactive)
2. O=C(O)CC1OCC=C2CN3CCC45C6=CC(=O)C(O)=C([N+](=O)[O-])C6=NC4C1C2CC35 (stereo not given) | > 100 µM (inactive)
3. O=C1c2ccccc2/C=C\C(c2ccccc2)=N/N1c1ccccc1Cl | 10.9 µM (inactive)
4. COc1ccc(C2SC(=N)Nc3c2c(C)nn3C(=O)c2ccc(Cl)cc2)cc1 (stereo not given) | > 10 µM (inactive)
5. Cc1nnc(N)nc1/C=C/c1c(O)ccc2ccccc12 | 37.9 µM (inactive)

###

test system: SK-OV-3; experiment: NCI tumour cell line growth inhibition, 48 h
Activity calls are given as the source filed them. Cut-off read from the data, not from the text of the source: active = GI50 up to about 1.1 µM and inactive = higher.
Reported GI50 values for a set of compounds
Recorded endpoint: GI50

1) COc1cc2c(oc(=O)c3c4occc4cc(OC)c23)c2cccc(O)c12 | > 100 µM (inactive)
2) CSCCC(C(=O)O)N(C)C (configuration not stated) | > 100 µM (inactive)
3) O=C1C(c2c(O)[nH]c3ccc(S(=O)(=O)O)cc23)=Nc2ccccc21 | > 100 µM (inactive)
4) C=C(CN(C)C)C(=O)c1ccc(C(=O)C(=C)CN(C)C)cc1 | > 100 µM (inactive)
5) Cc1cc(Cl)ccc1NC(=O)CCCC(=O)C1C/C(=N/O)CC/C1=N\O (configuration not stated) | > 100 µM (inactive)
6) O=C(C(Cl)=C(Nc1ccccc1)Nc1ccccc1)C(Cl)Cl | 37.6 µM (inactive)
7) COc1cc(Nc2nc3ccc(C(F)(F)F)cc3nc2-c2ccccc2)cc(OC)c1OC | > 100 µM (inactive)
8) COc1ccc2cc1Oc1ccc(cc1)C[C@H]1c3cc(c(OC)cc3CCN1C)Oc1c(O)c(OC)cc3c1[C@H](C2)N(C)CC3 | 28.4 µM (inactive)
9) Cc1ccc2c(O)cc(-c3cc(C)sc3C)nc2n1 | 3.77 µM (inactive)
10) CC1(C)OC(=S)N(c2ccccc2)C12C=Cc1cc3ccccc3nc1S2 (configuration not stated) | > 100 µM (inactive)
11) Cc1cc(O)c(O)c(Oc2cc(C)cc(O)c2O)c1 | 36.8 µM (inactive)
12) CC1(C)CC2C(/C1=N/O)C1(C)CCCC2(C)C1O (configuration not stated) | > 100 µM (inactive)
13) Cc1ccccc1NC(=O)O/N=C(\Cl)C(C)C | 18.7 µM (inactive)
14) O=S(=O)(O)c1ccc(-c2nnc(-c3ccccn3)nc2-c2ccc(S(=O)(=O)O)o2)o1 | > 100 µM (inactive)
15) NS(=O)(=O)c1ccc(NC(=O)N/N=C/c2ccccc2O)cc1 | 81.5 µM (inactive)
16) O=C(CCc1ccc(O)c(O)c1)NCCc1cc(O)c(O)c(O)c1 | > 100 µM (inactive)
17) C/C([O-])=C(/c1nc(-c2ccc([N+](=O)[O-])o2)no1)[n+]1cc(C)ccc1C | 35.6 µM (inactive)
18) Cc1nnc2ccccc2c1O | > 100 µM (inactive)
19) Cc1ccc2c(c1)-c1c(C#N)c(N)nc(-c3ccc(Cl)cc3)c1CCS2(=O)=O | 8.38 µM (inactive)
20) COc1ccc(C2C(C(=O)O)=C(COC(C)=O)Oc3cc4c(cc32)OCO4)cc1 (configuration not stated) | > 100 µM (inactive)
21) COC(=O)C(=C/c1ccc(OC)cc1)/C(C(=O)O)=C(/C)c1ccccc1 | > 100 µM (inactive)
22) N#Cc1cccc2c1Nc1ccccc1S2 | > 100 µM (inactive)
